The reported measurements were obtained from patent US9598401B2.

- tested.target: UniProt:P31652
- Sequence (P31652 whole entry): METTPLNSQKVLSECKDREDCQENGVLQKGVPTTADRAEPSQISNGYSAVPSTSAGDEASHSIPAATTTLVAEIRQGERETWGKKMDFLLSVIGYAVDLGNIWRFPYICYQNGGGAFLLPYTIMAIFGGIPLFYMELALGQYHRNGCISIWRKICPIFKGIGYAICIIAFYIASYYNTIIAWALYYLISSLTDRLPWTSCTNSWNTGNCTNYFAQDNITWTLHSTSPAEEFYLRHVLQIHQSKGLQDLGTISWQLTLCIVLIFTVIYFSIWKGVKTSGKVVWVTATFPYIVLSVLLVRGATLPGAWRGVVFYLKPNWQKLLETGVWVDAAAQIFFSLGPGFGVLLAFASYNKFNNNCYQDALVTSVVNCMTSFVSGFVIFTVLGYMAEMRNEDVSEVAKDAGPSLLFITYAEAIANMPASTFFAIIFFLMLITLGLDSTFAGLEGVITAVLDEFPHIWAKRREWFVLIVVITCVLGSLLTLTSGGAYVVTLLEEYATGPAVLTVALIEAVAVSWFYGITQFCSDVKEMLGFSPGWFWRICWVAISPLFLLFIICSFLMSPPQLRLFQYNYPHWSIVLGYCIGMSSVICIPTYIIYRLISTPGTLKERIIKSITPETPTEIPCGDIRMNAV
- procedure.text: Inhibitory effect on [3H]5-HT uptake in rat synaptosome
- condition: rat brain synaptosomes, 37° C., 15 minutes, 0.1 μCi [3H]5-HT
Below is a list of entries, each paired with its recorded pIC50 value.
Field pIC50 (float): negative decimal logarithm of the concentration in molar.

Cc1nc(N2CCN(CCCCc3c[nH]c4ccc(C#N)cc34)CC2)sc1C(N)=O :: 9.07
Fc1ccc2[nH]cc(CCCN3CCN(c4nccc(C(F)(F)F)n4)CC3)c2c1 :: 7.96
Cc1nc(N2CCN(CCCCc3c[nH]c4ccc(F)cc34)CC2)sc1C#N :: 8.08
Cc1cc(C)nc(N2CCN(CCCc3c[nH]c4ccccc34)CC2)n1 :: 7.28

Give recorded pIC50. N#Cc1ccc2[nH]cc(CCCCN3CCN(c4nccc(C(F)(F)F)n4)CC3)c2c1
8.00

Give recorded pIC50. CCOC(=O)c1sc(N2CCN(CCCc3c[nH]c4ccc(C#N)cc34)CC2)nc1C
8.46

Give recorded pIC50. Cc1cc(C)nc(N2CCN(CCCc3c[nH]c4ccc(C#N)cc34)CC2)n1
8.70
